Tested on: NCI/ADR-RES
Experiment summary: NCI tumour cell line growth inhibition, 48 h
Activity calls are given as the source filed them. No stated cut-off is given here; in the data, active = GI50 up to about 1.1 µM and inactive = higher.
Listed here are molecules together with their documented GI50.

{"columns": ["Molecule", "GI50"],
 "data": [
  ["CC1(c2nc3ccccc3[nH]2)CCC(C(N)=O)C(C)(C)O1 (stereo not drawn)", "> 100 µM (inactive)"],
  ["O=C(O)C1C(Br)(c2ccccc2)C1(Br)c1ccccc1 (stereo not drawn)", "52.4 µM (inactive)"],
  ["COc1ccc(C2Oc3c(OC)cc(CCCO)cc3C2CO)cc1OC (stereo not drawn)", "69 µM (inactive)"],
  ["C/C(CC1C2CCCC1C2)=N\\NC(N)=O (stereo not drawn)", "> 100 µM (inactive)"],
  ["O=C1N2CCc3c([nH]c4ccccc34)C23CC2CCCCC12S3 (stereo not drawn)", "> 100 µM (inactive)"],
  ["O=Cc1ccc(-c2ccc(-c3ccc(CO)s3)o2)s1", "10.6 µM (inactive)"],
  ["NCCc1ccc2c(c1)C(=O)c1c(O)ccc(O)c1C2=O", "3.93 µM (inactive)"],
  ["O=C1c2sc(-c3ccc(Cl)cc3)cc2-n2cccc21", "> 100 µM (inactive)"]
]}
